Target: T1, hiR2-FL-R554A-T7 (human, UniProt Q6PJF5 1-856)
T1 sequence: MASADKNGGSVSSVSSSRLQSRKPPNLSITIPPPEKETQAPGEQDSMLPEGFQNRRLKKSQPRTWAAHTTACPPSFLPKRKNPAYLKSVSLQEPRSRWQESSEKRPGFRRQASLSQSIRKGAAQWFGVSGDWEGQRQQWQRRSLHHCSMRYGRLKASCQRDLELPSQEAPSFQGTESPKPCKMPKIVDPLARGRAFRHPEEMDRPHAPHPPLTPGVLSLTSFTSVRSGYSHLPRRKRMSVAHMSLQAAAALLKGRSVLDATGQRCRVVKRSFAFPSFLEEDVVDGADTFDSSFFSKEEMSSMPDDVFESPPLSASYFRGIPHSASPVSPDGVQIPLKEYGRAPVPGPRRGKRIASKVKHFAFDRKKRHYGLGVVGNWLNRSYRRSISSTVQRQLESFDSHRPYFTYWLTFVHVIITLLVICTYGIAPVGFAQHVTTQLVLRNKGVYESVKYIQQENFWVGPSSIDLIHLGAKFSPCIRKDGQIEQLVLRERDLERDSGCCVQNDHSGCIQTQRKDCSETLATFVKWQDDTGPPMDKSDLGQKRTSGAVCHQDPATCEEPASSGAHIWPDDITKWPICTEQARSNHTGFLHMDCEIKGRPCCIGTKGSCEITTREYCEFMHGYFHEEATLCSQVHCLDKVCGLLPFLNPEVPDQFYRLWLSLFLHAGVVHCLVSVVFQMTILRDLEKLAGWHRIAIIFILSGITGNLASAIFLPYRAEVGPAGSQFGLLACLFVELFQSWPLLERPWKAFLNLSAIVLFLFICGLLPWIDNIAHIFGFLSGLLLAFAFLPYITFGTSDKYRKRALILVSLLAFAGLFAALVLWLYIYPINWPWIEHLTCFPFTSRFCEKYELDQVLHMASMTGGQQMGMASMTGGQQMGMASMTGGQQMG
Experiment: FACS on MEF-DKO cells expressing the variant, 3 µg/ml antibody
ASSAY_METRIC: loss of binding vs wild type

Would you please look over these solved cases?
Tell me measured loss of binding vs wild type for antibody 22 (antibody, V domains shown, mouse IgG, kappa light chain; also called clone #22; purified antibody 22) VH: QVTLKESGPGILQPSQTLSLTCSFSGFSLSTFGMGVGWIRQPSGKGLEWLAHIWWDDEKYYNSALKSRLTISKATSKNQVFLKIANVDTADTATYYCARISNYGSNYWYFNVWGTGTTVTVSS VL: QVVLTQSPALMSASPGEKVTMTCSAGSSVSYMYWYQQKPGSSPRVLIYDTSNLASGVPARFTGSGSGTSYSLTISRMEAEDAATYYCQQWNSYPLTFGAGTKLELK please.
≥ 30%

Tell me measured loss of binding vs wild type for antibody 44 (antibody, V domains shown, mouse IgG, kappa light chain; also called clone #44; purified antibody 44) VH: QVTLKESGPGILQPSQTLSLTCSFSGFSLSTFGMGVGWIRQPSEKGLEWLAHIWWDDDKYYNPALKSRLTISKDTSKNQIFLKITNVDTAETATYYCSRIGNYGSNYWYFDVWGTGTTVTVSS VL: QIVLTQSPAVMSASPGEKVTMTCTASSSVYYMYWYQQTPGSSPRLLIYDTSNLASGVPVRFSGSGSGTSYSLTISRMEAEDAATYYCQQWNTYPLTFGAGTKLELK please.
≥ 60%

Proceed to the following item.
Tell me measured loss of binding vs wild type for antibody 43 (antibody, V domains shown, mouse IgG, kappa light chain; also called clone #43; purified antibody 43) VH: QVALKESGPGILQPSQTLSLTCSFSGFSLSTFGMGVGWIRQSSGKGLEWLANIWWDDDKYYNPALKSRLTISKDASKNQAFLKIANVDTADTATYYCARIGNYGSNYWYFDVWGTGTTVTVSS VL: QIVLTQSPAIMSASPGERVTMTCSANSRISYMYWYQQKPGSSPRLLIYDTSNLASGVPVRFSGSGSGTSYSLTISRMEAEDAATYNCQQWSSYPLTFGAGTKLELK please.
≥ 30%
